# assay system: human BLT1 receptor (Homo sapiens (Human), UniProt Q15722)
# Sequence (Q15722 whole entry): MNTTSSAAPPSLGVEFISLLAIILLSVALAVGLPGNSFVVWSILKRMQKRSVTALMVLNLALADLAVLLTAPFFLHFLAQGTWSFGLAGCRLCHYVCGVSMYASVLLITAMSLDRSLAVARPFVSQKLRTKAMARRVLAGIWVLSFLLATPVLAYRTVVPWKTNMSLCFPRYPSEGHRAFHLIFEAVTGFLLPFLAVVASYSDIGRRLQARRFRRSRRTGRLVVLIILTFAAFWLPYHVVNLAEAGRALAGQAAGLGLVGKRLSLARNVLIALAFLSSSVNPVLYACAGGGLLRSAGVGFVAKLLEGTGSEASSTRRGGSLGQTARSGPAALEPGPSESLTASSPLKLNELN
# test description: BLT-1 cAMP Assay
# Assay type: cell-based
# condition parameters: antagonist mode; HEK293 cells recombinantly expressing human BLT1 receptor; forskolin 4 μM and LTB4 2 nM
# Description: The ability of compounds to antagonize the human BLT1 receptor was determined using a kit to measure changes in intracellular cyclic AMP levels (cAMP dynamic assay kit, Cisbio Cat. No. 62AM4PEC). […] The levels of cAMP were detected using the CisBio kit following the manufacturer's instructions: cAMP-d2 vial was reconstituted with distilled water and then diluted accordingly with conjugate & lysis buffer. […]
reported metric: EC50
Dear colleague, please send the value followed by its unit.

Known results for compounds:
CC1(S(=O)(=O)NC(=O)c2ccccc2-c2ccc3c(c2)OC[C@H](Cc2ccc(-c4cncs4)cn2)[C@H]3O)CC1 (single isomer, unassigned) [Example 2] : 6 nM
Cc1ncc(-c2ccc(C[C@@H]3COc4cc(-c5ccccc5C(=O)NS(=O)(=O)C5CC5)ccc4[C@H]3O)nc2)s1 (single isomer, unassigned) [Example 11] : 391 nM
Cc1ncc(-c2ccc(C[C@@H]3COc4cc(-c5ccccc5C(=O)NS(=O)(=O)C5CC5)ccc4[C@H]3O)nc2)s1 (racemic) [Example 9] : 9 nM
CC1(S(=O)(=O)NC(=O)c2ccccc2-c2ccc3c(c2)OC[C@@H](Cc2ccc(-c4cncs4)cn2)[C@@H]3O)CC1 (single isomer, unassigned) [Example 3] : 78 nM

Turning now to a further compound:
Consider the compound shown here: Cc1ncc(-c2ccc(C[C@H]3COc4cc(-c5ccccc5C(=O)NS(=O)(=O)C5CC5)ccc4[C@@H]3O)nc2)s1 (single isomer, unassigned) [Example 10] What is its recorded EC50?
6 nM

* * *

# assay system: human BLT1 receptor (Homo sapiens (Human))
# test description: BLT-1 cAMP Assay
# Format: cell-based
# condition parameters: antagonist mode; HEK293 cells recombinantly expressing human BLT1 receptor; forskolin 4 μM and LTB4 2 nM
Lab note: anything with EC50 below 6 nM is marked yes; values at 6 nM or higher are marked no.

Record CC(C)(C)S(=O)(=O)NC(=O)c1ccccc1-c1ccc2c(c1)OC[C@H](Cc1ccc(-c3cncs3)cn1)[C@H]2O (single isomer, unassigned) : is its EC50 strictly below 6 nM?
yes

Record O=C(NS(=O)(=O)C1CC1)c1ccccc1-c1ccc2c(c1)OC[C@@H](Cc1ccc(-c3cncs3)cn1)[C@@H]2O (racemic) : is its EC50 strictly below 6 nM?
no

* * *

Consider the following molecules; for each one, report its EC50.
# assay system: human BLT1 receptor (Homo sapiens (Human), UniProt Q15722)
# test description: BLT-1 cAMP Assay
# Type: cell-based
# condition parameters: antagonist mode; HEK293 cells recombinantly expressing human BLT1 receptor; forskolin 4 μM and LTB4 2 nM
Give bare numbers, in nM.

Known results for molecules:
CC1(S(=O)(=O)NC(=O)c2ccccc2-c2ccc3c(c2)OC[C@@H](Cc2ccc(-c4cncs4)cn2)[C@@H]3O)CC1 [Example 1] : 6
Cc1ncc(-c2ccc(C[C@@H]3COc4cc(-c5ccccc5C(=O)NS(=O)(=O)C(C)(C)C)ccc4[C@H]3O)nc2)s1 (racemic) [Example 7] : 5
CC(C)(C)S(=O)(=O)NC(=O)c1ccccc1-c1ccc2c(c1)OC[C@@H](Cc1ccc(-c3cncs3)cn1)[C@@H]2O (single isomer, unassigned) [Example 6] : 128

Consider the molecule shown here: CC(C)(C)S(=O)(=O)NC(=O)c1ccccc1-c1ccc2c(c1)OC[C@@H](Cc1ccc(-c3cncs3)cn1)[C@@H]2O (racemic) [Example 4] What is its recorded EC50?
8
